SUBJECT_OF_TEST: T1, Calpain-1
T1 chain 1: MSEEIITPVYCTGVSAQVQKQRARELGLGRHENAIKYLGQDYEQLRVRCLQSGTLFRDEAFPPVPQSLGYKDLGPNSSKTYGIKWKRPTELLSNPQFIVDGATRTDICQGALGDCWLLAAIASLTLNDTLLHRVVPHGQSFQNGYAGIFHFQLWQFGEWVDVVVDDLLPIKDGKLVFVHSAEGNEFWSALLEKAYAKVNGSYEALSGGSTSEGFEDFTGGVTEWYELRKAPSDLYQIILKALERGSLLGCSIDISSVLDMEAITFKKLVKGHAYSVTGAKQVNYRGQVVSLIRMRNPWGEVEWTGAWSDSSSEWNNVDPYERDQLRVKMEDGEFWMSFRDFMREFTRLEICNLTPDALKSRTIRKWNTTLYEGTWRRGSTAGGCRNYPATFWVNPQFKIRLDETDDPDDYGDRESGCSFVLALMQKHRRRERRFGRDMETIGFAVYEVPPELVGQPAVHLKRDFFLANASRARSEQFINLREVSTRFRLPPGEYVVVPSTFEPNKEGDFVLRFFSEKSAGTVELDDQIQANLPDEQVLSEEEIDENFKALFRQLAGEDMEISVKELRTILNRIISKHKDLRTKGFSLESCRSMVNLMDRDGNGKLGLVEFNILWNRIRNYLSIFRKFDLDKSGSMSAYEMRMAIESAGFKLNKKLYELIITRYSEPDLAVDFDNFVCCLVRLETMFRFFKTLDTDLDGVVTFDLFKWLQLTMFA
T1 chain 2: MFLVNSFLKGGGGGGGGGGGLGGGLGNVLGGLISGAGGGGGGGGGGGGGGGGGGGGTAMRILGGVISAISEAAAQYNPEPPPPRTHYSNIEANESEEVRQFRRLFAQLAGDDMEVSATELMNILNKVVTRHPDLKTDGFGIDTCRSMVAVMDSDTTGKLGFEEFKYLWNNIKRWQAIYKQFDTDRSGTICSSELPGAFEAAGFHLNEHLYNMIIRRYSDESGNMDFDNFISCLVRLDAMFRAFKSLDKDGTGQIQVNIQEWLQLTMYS
ASSAY_PROCEDURE: fluorescence-based enzyme inhibition assay
Positions of bridges follow the written chain, without caps; N, C: chain ends. No end group written: not given here. alpha,alpha'‑meta‑xylylene = alpha,alpha'-meta-xylylene linker (from a,a'-dibromo-meta-xylene) bridging two cysteines via bis-thioether
QUANTITY_MEASURED: Ki (µM)
One number for each entry, in µM.

Worked cases, answers included:
BINDER	UNIT	Ki
WWEWVCSLMCS (linker 6-10 via alpha,alpha'‑meta‑xylylene, triple mutant) [WWEWVCSLMCS (SEQ ID NO:25)]	µM	85.5
WWEWWCSLMCS (linker 6-10 via alpha,alpha'‑meta‑xylylene, quadruple mutant; also called compound (IVa)) [WWEWWCSLMCS (SEQ ID NO:26)]	µM	66.7
WSEEVCSLMCS (linker 6-10 via alpha,alpha'‑meta‑xylylene, single mutant) [WSEEVCSLMCS (SEQ ID NO:17)]	µM	108

Field: next binder
Query string: Given TWEWVCSLMCS (linker 6-10 via alpha,alpha'‑meta‑xylylene, double mutant) [TWEWVCSLMCS (SEQ ID NO:23)] , state its recorded Ki.
Result string: 88.4
